assay: AUC (0 to t) in NMRI mouse blood at 25 mg/kg administered through oral gavage after 7 hrs; assay type: ADME, organism-based; set-up: time < 7 hr, dose 25 mg/kg, route oral
Result Type: AUC(0-t) at 7 h
Hey, just the number and the unit after it is fine.

In the examples that follow, each entry is paired with its recorded AUC(0-t) at 7 h.
COc1ncc(C2c3ccccc3C=NN2C(=O)/C=C/c2cc(Cc3cnc(N)nc3N)cc(OC)c2OC)cn1 (stereo not drawn) ... 10600 ng·h/mL
COc1cc(Cc2cnc(N)nc2N)cc(/C=C/C(=O)N2N=Cc3ccccc3C2c2cnc(N(C)C)nc2)c1OC (stereo not drawn) ... 23400 ng·h/mL

Now, please, on to the next compound.
## Task Data request, read-out AUC(0-t) at 7 h, for COc1cc(Cc2cnc(N)nc2N)cc(/C=C/C(=O)N2N=Cc3ccccc3C2c2cnc(N3CCOCC3)nc2)c1OC (stereo not drawn)
## Result 5590 ng·h/mL
